Below, each of the molecules is paired with its reported IC50 value.
Test system: MV4;11 cells
method: alamarBlue cell metabolism/viability assay, MV4;11
Assay type: cell-based, human
reported.conditions: Homo sapiens, MV4-11, alamarBlue, at least triplicate, errors are SEMs
experimental.endpoint: IC50 (nM)

molecule	qual	observed
CC1(C)CCC(CN2CCN(c3ccc(C(=O)NS(=O)(=O)c4ccc(NCC5CCN(c6ccc(C(=O)NO)cc6)CC5)c([N+](=O)[O-])c4)c(Oc4cnc5[nH]ccc5c4)c3)CC2)=C(c2ccc(Cl)cc2)C1	=	66.2
CC1(C)CCC(CN2CCN(c3ccc(C(=O)NS(=O)(=O)c4ccc(NCc5ccc(C(=O)Nc6ccccc6N)cc5)c([N+](=O)[O-])c4)c(Oc4cnc5[nH]ccc5c4)c3)CC2)=C(c2ccc(Cl)cc2)C1	=	19.3
CC1(C)CCC(CN2CCN(c3ccc(C(=O)NS(=O)(=O)c4ccc(NCc5ccc(C(=O)NO)cc5)c([N+](=O)[O-])c4)c(Oc4cnc5[nH]ccc5c4)c3)CC2)=C(c2ccc(Cl)cc2)C1	=	285
CC1(C)CCC(CN2CCN(c3ccc(C(=O)NS(=O)(=O)c4ccc(NCC5CCOCC5)c([N+](=O)[O-])c4)c(Oc4cnc5[nH]ccc5c4)c3)CC2)=C(c2ccc(Cl)cc2)C1 [Venetoclax, venetoclax, reference compound]	=	82
CC1(C)CCC(CN2CCN(c3ccc(C(=O)NS(=O)(=O)c4ccc(NCCNc5ncc(C(=O)NO)cn5)c([N+](=O)[O-])c4)c(Oc4cnc5[nH]ccc5c4)c3)CC2)=C(c2ccc(Cl)cc2)C1	>	10000
CC1(C)CCC(CN2CCN(c3ccc(C(=O)NS(=O)(=O)c4ccc(NCCNC(=O)c5ccc(/C=C/C(=O)NO)cc5)c([N+](=O)[O-])c4)c(Oc4cnc5[nH]ccc5c4)c3)CC2)=C(c2ccc(Cl)cc2)C1	>	10000
CC1(C)CCC(CN2CCN(c3ccc(C(=O)NS(=O)(=O)c4ccc(NCCNC(=O)c5ccc(C(=O)NO)cc5)c([N+](=O)[O-])c4)c(Oc4cnc5[nH]ccc5c4)c3)CC2)=C(c2ccc(Cl)cc2)C1	>	10000

* * *

System: MV4;11 BCL‐2 over‐expressing (OE) cells
method: alamarBlue cell metabolism/viability assay, MV4;11 BCL‐2 OE
Format: cell-based
reported.conditions: Homo sapiens, MV4-11, alamarBlue, at least triplicate, errors are SEMs; read-out: IC50 MV4;11 BCL‐2 OE
pIC50: −log10 of the molar value.

compound	pIC50
CC1(C)CCC(CN2CCN(c3ccc(C(=O)NS(=O)(=O)c4ccc(NCc5ccc(C(=O)Nc6ccccc6N)cc5)c([N+](=O)[O-])c4)c(Oc4cnc5[nH]ccc5c4)c3)CC2)=C(c2ccc(Cl)cc2)C1	6.47
CC1(C)CCC(CN2CCN(c3ccc(C(=O)NS(=O)(=O)c4ccc(NCC5CCN(c6ccc(C(=O)NO)cc6)CC5)c([N+](=O)[O-])c4)c(Oc4cnc5[nH]ccc5c4)c3)CC2)=C(c2ccc(Cl)cc2)C1	6.20
CC1(C)CCC(CN2CCN(c3ccc(C(=O)NS(=O)(=O)c4ccc(NCC5CCOCC5)c([N+](=O)[O-])c4)c(Oc4cnc5[nH]ccc5c4)c3)CC2)=C(c2ccc(Cl)cc2)C1 [Venetoclax, venetoclax, reference compound]	5.99
CC1(C)CCC(CN2CCN(c3ccc(C(=O)NS(=O)(=O)c4ccc(NCc5ccc(C(=O)NO)cc5)c([N+](=O)[O-])c4)c(Oc4cnc5[nH]ccc5c4)c3)CC2)=C(c2ccc(Cl)cc2)C1	5.61
